Test system: human colon cancer cell strain HCT-116
method.description: MTT assay, inhibition of tumor cell growth in vitro, 72 h
Assay type: cell-based
condition.description: Homo sapiens, HCT-116, MTT, read-out: Antitumor proliferative activities of tumor cell (IC50, μM) HCT-116 (converted)
observable: IC50 (µM)

1: Cn1ncc(Cl)c1-c1cc(C(=O)N[C@@H]2CNC(CCO)C[C@H]2c2ccc(F)c(F)c2)oc1Cl (stereo partly shown) [Compound 129]
2: Cc1occc1-c1cc(-c2c(Cl)cnn2C)ccc1C(=O)N[C@@H]1CNCC[C@H]1c1cccc(F)c1 [Compound 88]
3: CNC(=O)CC1C[C@@H](c2ccc(F)c(F)c2)[C@H](NC(=O)c2cc(-c3c(Cl)cnn3C)c(Cl)s2)CN1 (stereo partly shown) [Compound 104]
4: CNC(=O)CC1C[C@@H](c2ccc(F)c(F)c2)[C@H](NC(=O)c2ccc(-c3c(Cl)cnn3C)c(Cl)c2)CN1 (stereo partly shown) [Compound 99]
Data request: Highest to lowest IC50: rank the entries shown above. Field: ranking. Enter the labels in the order requested.
Data returned: 2, 3, 4, 1

---

System: Human ovarian cancer cell strain OVCAR-8
method.description: MTT assay, inhibition of tumor cell growth in vitro, 72 h
Type: cell-based
condition.description: Homo sapiens, OVCAR-8, MTT, read-out: Antitumor proliferative activities of tumor cell (IC50, μM) OVCAR-8
observable: IC50 (µM)

The examples below pair each entry with its known result.
>  <molecule>
Cn1ncc(Cl)c1-c1ccc(C(=O)N[C@@H]2CNCC[C@H]2c2ccc(Cl)cc2)cc1C#N

>  <unit.abbreviation>
µM

>  <IC50>
2.54

$$$$
>  <molecule>
Cn1ncc(Cl)c1-c1cc(C(=O)N[C@@H]2CNC(CCN3CCCC(O)C3)C[C@H]2c2ccc(Cl)c(Cl)c2)oc1Cl (stereo partly drawn)

>  <unit.abbreviation>
µM

>  <IC50>
0.78

$$$$
>  <molecule>
CCCC1C[C@@H](c2ccc(Cl)c(Cl)c2)[C@H](NC(=O)c2cc(-c3c(Cl)cnn3C)c(Cl)o2)CN1 (stereo partly drawn)

>  <unit.abbreviation>
µM

>  <IC50>
1.06

$$$$
>  <molecule>
CC(O)c1cnn(C)c1-c1ccc(C(=O)N[C@@H]2CNCC[C@H]2c2cccc(F)c2)s1 (stereo partly drawn)

>  <unit.abbreviation>
µM

>  <IC50>
0.04

$$$$
>  <molecule>
Cn1ncc(Cl)c1-c1cnc(C(=O)N[C@@H]2CNCC[C@H]2c2ccc(Cl)c(C(F)(F)F)c2)cc1Cl

>  <unit.abbreviation>
µM

>  <IC50>
0.98

$$$$
>  <molecule>
Cn1ncc(Cl)c1-c1cc(C(=O)N[C@H]2CNCC[C@@H]2c2ccc(C(F)(F)F)cc2)oc1Cl [Compound 43]

>  <unit.abbreviation>
µM

>  <IC50>
3.58

$$$$

1: Cc1cnn(C)c1-c1cnc(C(=O)N[C@@H]2CNCC[C@H]2c2ccc(F)c(F)c2)cc1F
2: Cc1sc(C(=O)N[C@H]2CNCC[C@@H]2c2ccc(F)c(F)c2)cc1-c1c(Cl)cnn1C (racemic)
Data request: I need your help: which of the pair 1 , 2 has higher IC50? Kindly state the label of the option you pick.
Data returned: 2

---

Test system: human colon cancer cell strain HCT-116
method.description: MTT assay, inhibition of tumor cell growth in vitro, 72 h
Format: cell-based
condition.description: Homo sapiens, HCT-116, MTT, read-out: Antitumor proliferative activities of tumor cell (IC50, μM) HCT-116 (converted)
observable: IC50 (µM)

Before answering, review these 5 worked examples.
>  <compound>
Cn1ncc(Cl)c1-c1cc(C(=O)N[C@H]2CNCC[C@@H]2c2ccc(C(F)(F)F)cc2)oc1Cl [Compound 43]

>  <observable>
IC50

>  <observed.result>
13.8

$$$$
>  <compound>
CCc1c(-c2c(Cl)cnn2C)cc(C(=O)N[C@H]2CNCC[C@@H]2C2CCC(F)C2)n1C (stereo partly shown) [Compound 15]

>  <observable>
IC50

>  <observed.result>
2.04

$$$$
>  <compound>
Cn1ncc(Br)c1-c1ccc(C(=O)N[C@@H]2CNCC[C@H]2c2cccc(F)c2)s1 [Compound 147]

>  <observable>
IC50

>  <observed.result>
0.36

$$$$
>  <compound>
C[C@H]1CNC[C@@H](NC(=O)c2ccc(-c3c(Cl)cnn3C)s2)[C@@H]1c1cccc(F)c1 [Compound 150]

>  <observable>
IC50

>  <observed.result>
4.43

$$$$
>  <compound>
Cn1ncc(Cl)c1-c1cnc(C(=O)N[C@@H]2CNCC[C@H]2c2ccc(F)c(F)c2)c(F)c1 [Compound 97]

>  <observable>
IC50

>  <observed.result>
4.14

$$$$

1: Cn1ncc(Cl)c1-c1coc(C(=O)N[C@H]2CNCC[C@@H]2c2ccc(F)c(F)c2)c1 (racemic) [Compound 25]
2: Cn1ncc(Cl)c1-c1ccc(C(=O)N[C@@H]2CNCC[C@H]2c2cccc(F)c2)s1 [Compound 138]
Data request: From the recorded data, which exceeds the other in IC50: 1 or 2 ? // respond with label for picked entry
Data returned: 1
(1: 3.19 µM, 2: 0.56 µM)

Data credit: patent US10233180B2
